# System: SK-MEL-28
# Assay Protocol: SRB colorimetric assay of cell growth and viability, SK-MEL-28
# Type: cell-based, human
# Measurement Setup: 48 hours exposure
Where a SMILES comes first, the peptide text is derived from it. Bridges are numbered along the chain shown (N, C = ends). [ ]: non-standard residue; d: D form. The star is where a group is joined. d(aIle) = CC[C@H](C)[C@@H](N)C(=O)O; d(aThr) = C[C@@H](O)[C@@H](N)C(=O)O; Hexanoyl(5-Me) = CC(C)CCCC(=O)*; Orn = NCCC[C@H](N)C(=O)O; Dhb = C/C=C(\N)C(=O)O
Each entry below carries its reported TGI MEL-28.
Number in Molar, nothing else.

Compound	Target Under Test	TGI MEL-28 [Molar]
CC[C@H](C)[C@@H](NC(=O)[C@H](CCCN)NC(=O)[C@H]1CCCN1C(=O)[C@H](NC(=O)[C@@H](NC(=O)[C@@H](NC(=O)[C@H](NC(=O)CCCC(C)C)C(C)C)[C@@H](C)O)C(C)C)C(C)C)C(=O)N[C@H]1C(=O)N[C@H]([C@@H](C)CC)C(=O)N[C@H](C(C)C)C(=O)N[C@@H](Cc2ccccc2)C(=O)NCC(=O)N[C@@H](C(C)C)C(=O)O[C@@H]1C [Compound 65, [Gly^2]-KF] ({Hexanoyl(5-Me)}-[dV]TV[dV][dP][Orn][d(aIle)][d(aThr)][d(aIle)][dV]FGV; ester 8-C)	SK-MEL-28	3.39E−06

// moving on: another record for TGI MEL-28
**Query** What reported TGI MEL-28 corresponds to C/C=C1\NC(=O)[C@H](Cc2ccccc2)NC(=O)[C@@H](C(C)C)NC(=O)[C@@H]([C@@H](C)CC)NC(=O)[C@H](NC(=O)[C@H](NC(=O)[C@H](CCCN)NC(=O)[C@H]2CCCN2C(=O)[C@H](NC(=O)[C@H](Cc2ccccc2)NC(=O)[C@@H](NC(=O)[C@H](NC(=O)CCCC(C)C)C(C)C)[C@@H](C)O)C(C)C)[C@@H](C)CC)[C@@H](C)OC(=O)[C@H](C(C)C)NC1=O [Compound 43, [Phe^11]-KF] ({Hexanoyl(5-Me)}-[dV]TF[dV][dP][Orn][d(aIle)][d(aThr)][d(aIle)][dV]F[Dhb]V; ester 8-C) on SK-MEL-28?
**Result** 1.66E−06

----------
# Test system: SK-MEL-28
# Assay Protocol: SRB colorimetric assay of cell growth and viability, SK-MEL-28
# Type: cell-based, human
# Measurement Setup: MEL-28; 48 hours exposure
Where a SMILES comes first, the peptide text is derived from it. Bridges are numbered along the chain shown (N, C = ends). [ ]: non-standard residue; d: D form. The star is where a group is joined. Bip = N[C@@H](Cc1ccc(-c2ccccc2)cc1)C(=O)O; d(aIle) = CC[C@H](C)[C@@H](N)C(=O)O; d(aThr) = C[C@@H](O)[C@@H](N)C(=O)O; Hexanoyl(5-Me) = CC(C)CCCC(=O)*; Orn = NCCC[C@H](N)C(=O)O; Dhb = C/C=C(\N)C(=O)O
Recorded Endpoint: GI50 (nM)
Number in nM, nothing else.

Molecule	Output Unit	GI50
C/C=C1\NC(=O)[C@H](Cc2ccccc2Cl)NC(=O)[C@@H](C(C)C)NC(=O)[C@@H]([C@@H](C)CC)NC(=O)[C@H](NC(=O)[C@H](NC(=O)[C@H](CCCN)NC(=O)[C@H]2CCCN2C(=O)[C@H](NC(=O)[C@@H](NC(=O)[C@@H](NC(=O)[C@H](NC(=O)CCCC(C)C)C(C)C)[C@@H](C)O)C(C)C)C(C)C)[C@@H](C)CC)[C@@H](C)OC(=O)[C@H](C(C)C)NC1=O [Compound 81, [Phe(2-Cl)^3]-KF]	nM	362

**Query** What reported GI50 corresponds to C/C=C1\NC(=O)[C@H](Cc2cccc(Cl)c2)NC(=O)[C@@H](C(C)C)NC(=O)[C@@H]([C@@H](C)CC)NC(=O)[C@H](NC(=O)[C@H](NC(=O)[C@H](CCCN)NC(=O)[C@H]2CCCN2C(=O)[C@H](NC(=O)[C@@H](NC(=O)[C@@H](NC(=O)[C@H](NC(=O)CCCC(C)C)C(C)C)[C@@H](C)O)C(C)C)C(C)C)[C@@H](C)CC)[C@@H](C)OC(=O)[C@H](C(C)C)NC1=O [Compound 82, [Phe(3-Cl)^3]-KF] on SK-MEL-28?
**Result** 297

**Query** Next entry: C/C=C1\NC(=O)[C@H](Cc2ccc(F)c(F)c2)NC(=O)[C@@H](C(C)C)NC(=O)[C@@H]([C@@H](C)CC)NC(=O)[C@H](NC(=O)[C@H](NC(=O)[C@H](CCCN)NC(=O)[C@H]2CCCN2C(=O)[C@H](NC(=O)[C@@H](NC(=O)[C@@H](NC(=O)[C@H](NC(=O)CCCC(C)C)C(C)C)[C@@H](C)O)C(C)C)C(C)C)[C@@H](C)CC)[C@@H](C)OC(=O)[C@H](C(C)C)NC1=O [Compound 84, [Phe(3,4-F2)^3]-KF]
**Result** 224

**Query** Next entry: C/C=C1\NC(=O)[C@H](Cc2ccc(-c3ccccc3)cc2)NC(=O)[C@@H](C(C)C)NC(=O)[C@@H]([C@@H](C)CC)NC(=O)[C@H](NC(=O)[C@H](NC(=O)[C@H](CCCN)NC(=O)[C@H]2CCCN2C(=O)[C@H](NC(=O)[C@@H](NC(=O)[C@@H](NC(=O)[C@H](NC(=O)CCCC(C)C)C(C)C)[C@@H](C)O)C(C)C)C(C)C)[C@@H](C)CC)[C@@H](C)OC(=O)[C@H](C(C)C)NC1=O [Compound 86, [Bip^3]-KF] ({Hexanoyl(5-Me)}-[dV]TV[dV][dP][Orn][d(aIle)][d(aThr)][d(aIle)][dV][Bip][Dhb]V; ester 8-C)
**Result** 183

**Query** Next entry: C/C=C1\NC(=O)[C@H](Cc2ccccc2)NC(=O)[C@@H](C(C)C)NC(=O)[C@@H]([C@@H](C)CC)NC(=O)[C@H](NC(=O)[C@H](NC(=O)[C@H](CCCN)NC(=O)[C@H]2CCCN2C(=O)[C@H](NC(=O)[C@@H](NC(=O)[C@H](Cc2ccccc2)NC(=O)[C@H](NC(=O)CCCC(C)C)C(C)C)C(C)C)C(C)C)[C@@H](C)CC)[C@@H](C)OC(=O)[C@H](C(C)C)NC1=O [Compound 114, [Phe^12]-KF] ({Hexanoyl(5-Me)}-[dV]FV[dV][dP][Orn][d(aIle)][d(aThr)][d(aIle)][dV]F[Dhb]V; ester 8-C)
**Result** 170
